Test system: Pseudomonas aeruginosa PAE19-3
Format: cell-based
Conditions: PAE19-3
Bridge positions count the residues as written; N and C are the ends. Square brackets hold non-standard residues; d marks the D form. Peptide text beside a SMILES is read from it. * marks the point of attachment. Dab(CH2SO3H) = N[C@@H](CCNCS(=O)(=O)O)C(=O)O; Heptanoyl(6-Me) = CC(C)CCCCC(=O)*; Nonanoyl = CCCCCCCCC(=O)*; X1 = CC[C@H](C)CCCCC(=O)*; dDab = NCC[C@@H](N)C(=O)O; Heptanoyl = CCCCCCC(=O)*; Octanoyl = CCCCCCCC(=O)*; Orn = NCCC[C@H](N)C(=O)O; Dab = NCC[C@H](N)C(=O)O; Dap = NC[C@H](N)C(=O)O
Each item that follows carries a reported MIC.
measurement.kind: MIC (µg/mL)

>>> experimental_result("CCCCCCC(=O)N[C@@H](CCN)C(=O)N[C@H](C(=O)N[C@@H](CN)C(=O)N[C@H]1CCNC(=O)[C@H]([C@@H](C)O)NC(=O)[C@H](CCN)NC(=O)[C@H](CCN)NC(=O)[C@H]([C@@H](C)O)NC(=O)[C@@H](Cc2ccccc2)NC(=O)[C@H](CCN)NC1=O)[C@@H](C)O [Compound 9] (Heptanoyl-[Dab]T[Dap][Dab][Dab][dF]T[Dab][Dab]T; lactam 4-C)")
0.25
>>> experimental_result("CC(C)CCCCC(=O)N[C@@H](CCCN)C(=O)N[C@H](C(=O)N[C@H](CO)C(=O)N[C@H]1CCNC(=O)[C@H]([C@@H](C)O)NC(=O)[C@H](CCN)NC(=O)[C@H](CCN)NC(=O)[C@H]([C@@H](C)O)NC(=O)[C@@H](Cc2ccccc2)NC(=O)[C@H](CCN)NC1=O)[C@@H](C)O [Compound 57] ({Heptanoyl(6-Me)}-[Orn]T[dS][Dab][Dab][dF]T[Dab][Dab]T; lactam 4-C)")
4
>>> experimental_result("CCCCCCC(=O)N[C@@H](CN)C(=O)N[C@H](C(=O)N[C@H](CO)C(=O)N[C@H]1CCNC(=O)[C@H]([C@@H](C)O)NC(=O)[C@H](CCN)NC(=O)[C@H](CCN)NC(=O)[C@H]([C@@H](C)O)NC(=O)[C@@H](Cc2ccccc2)NC(=O)[C@H](CCN)NC1=O)[C@@H](C)O [Compound 54] (Heptanoyl-[Dap]T[dS][Dab][Dab][dF]T[Dab][Dab]T; lactam 4-C)")
8
>>> experimental_result("CC(C)CCCCC(=O)N[C@@H](CCNCS(=O)(=O)O)C(=O)N[C@H](C(=O)N[C@H](CO)C(=O)N[C@H]1CCNC(=O)[C@H]([C@@H](C)O)NC(=O)[C@H](CCN)NC(=O)[C@H](CCN)NC(=O)[C@H]([C@@H](C)O)NC(=O)[C@@H](Cc2ccccc2)NC(=O)[C@H](CCN)NC1=O)[C@@H](C)O [Compound 108] ({Heptanoyl(6-Me)}-[Dab(CH2SO3H)]T[dS][Dab][Dab][dF]T[Dab][Dab]T; lactam 4-C)")
0.5
>>> experimental_result("CC[C@H](C)CCCCC(=O)N[C@@H](CCN)C(=O)N[C@H](C(=O)N[C@H](CO)C(=O)N[C@H]1CCNC(=O)[C@H]([C@@H](C)O)NC(=O)[C@H](CCN)NC(=O)[C@H](CN)NC(=O)[C@H]([C@@H](C)O)NC(=O)[C@@H](Cc2ccccc2)NC(=O)[C@H](CCN)NC1=O)[C@@H](C)O [Compound 71] (X1-[Dab]T[dS][Dab][Dab][dF]T[Dap][Dab]T; lactam 4-C)")
64
>>> experimental_result("CCCCCCCCC(=O)N[C@@H](CCN)C(=O)N[C@H](C(=O)N[C@H](CO)C(=O)N[C@H]1CCNC(=O)[C@H]([C@@H](C)O)NC(=O)[C@H](CN)NC(=O)[C@H](CCN)NC(=O)[C@H]([C@@H](C)O)NC(=O)[C@@H](Cc2ccccc2)NC(=O)[C@H](CCN)NC1=O)[C@@H](C)O [Compound 85] (Nonanoyl-[Dab]T[dS][Dab][Dab][dF]T[Dab][Dap]T; lactam 4-C)")
64
>>> experimental_result("CCCCCCC(=O)N[C@@H](CCN)C(=O)N[C@H](C(=O)N[C@@H](CCCN)C(=O)N[C@H]1CCNC(=O)[C@H]([C@@H](C)O)NC(=O)[C@H](CCN)NC(=O)[C@H](CCN)NC(=O)[C@H]([C@@H](C)O)NC(=O)[C@@H](Cc2ccccc2)NC(=O)[C@H](CCN)NC1=O)[C@@H](C)O [Compound 29] (Heptanoyl-[Dab]T[Orn][Dab][Dab][dF]T[Dab][Dab]T; lactam 4-C)")
0.5
>>> experimental_result("CC[C@H](C)CCCCC(=O)N[C@@H](CN)C(=O)N[C@H](C(=O)N[C@H](CO)C(=O)N[C@H]1CCNC(=O)[C@H]([C@@H](C)O)NC(=O)[C@H](CCN)NC(=O)[C@H](CCN)NC(=O)[C@H]([C@@H](C)O)NC(=O)[C@@H](Cc2ccccc2)NC(=O)[C@H](CCN)NC1=O)[C@@H](C)O [Compound 51] (X1-[Dap]T[dS][Dab][Dab][dF]T[Dab][Dab]T; lactam 4-C)")
4
>>> experimental_result("CCCCCCCC(=O)N[C@@H](CCN)C(=O)N[C@H](C(=O)N[C@H](CO)C(=O)N[C@H]1CCNC(=O)[C@H]([C@@H](C)O)NC(=O)[C@H](CCN)NC(=O)[C@H](CCN)NC(=O)[C@H]([C@@H](C)O)NC(=O)[C@@H](Cc2ccccc2)NC(=O)[C@H](CN)NC1=O)[C@@H](C)O [Compound 63] (Octanoyl-[Dab]T[dS][Dab][Dap][dF]T[Dab][Dab]T; lactam 4-C)")
4
>>> experimental_result("CCCCCCCC(=O)N[C@@H](CN)C(=O)N[C@H](C(=O)N[C@H](CCN)C(=O)N[C@H]1CCNC(=O)[C@H]([C@@H](C)O)NC(=O)[C@H](CCN)NC(=O)[C@H](CCN)NC(=O)[C@H](CC(C)C)NC(=O)[C@@H](CC(C)C)NC(=O)[C@H](CCN)NC1=O)[C@@H](C)O [Compound 98] (Octanoyl-[Dap]T[dDab][Dab][Dab][dL]L[Dab][Dab]T; lactam 4-C)")
0.5

* * *

Tested on: Klebsiella pneumoniae KPN+19-15
Type: cell-based
Settings: KPN+19-15
Procedure: The minimal inhibitory concentration (MIC) was determined by the broth microdilution method according to the recommended procedures of the Clinical and Laboratory Standards Institute (CLSI). An appropriate amount of the cyclic lipopeptide compounds prepared in Examples 1-120 and the reference standards were weighed and dissolved in sterile pure water. […]
Bridge positions count the residues as written; N and C are the ends. Square brackets hold non-standard residues; d marks the D form. Peptide text beside a SMILES is read from it. * marks the point of attachment. Dab(CH2SO3H) = N[C@@H](CCNCS(=O)(=O)O)C(=O)O; Heptanoyl(6-Me) = CC(C)CCCCC(=O)*; Nonanoyl = CCCCCCCCC(=O)*; X1 = CC[C@H](C)CCCCC(=O)*; dDab = NCC[C@@H](N)C(=O)O; Orn = NCCC[C@H](N)C(=O)O; Dab = NCC[C@H](N)C(=O)O; Dap = NC[C@H](N)C(=O)O
This listing pairs compounds with measured MIC.
measurement.kind: MIC (µg/mL)

>>> experimental_result("CCCCCCCCC(=O)N[C@@H](CCN)C(=O)N[C@H](C(=O)N[C@@H](CN)C(=O)N[C@H]1CCNC(=O)[C@H]([C@@H](C)O)NC(=O)[C@H](CCN)NC(=O)[C@H](CCN)NC(=O)[C@H]([C@@H](C)O)NC(=O)[C@@H](Cc2ccccc2)NC(=O)[C@H](CCN)NC1=O)[C@@H](C)O [Compound 10] (Nonanoyl-[Dab]T[Dap][Dab][Dab][dF]T[Dab][Dab]T; lactam 4-C)")
0.06
>>> experimental_result("CC(C)CCCCC(=O)N[C@@H](CCN)C(=O)N[C@H](C(=O)N[C@@H](CN)C(=O)N[C@H]1CCNC(=O)[C@H]([C@@H](C)O)NC(=O)[C@H](CCNCS(=O)(=O)O)NC(=O)[C@H](CCN)NC(=O)[C@H]([C@@H](C)O)NC(=O)[C@@H](Cc2ccccc2)NC(=O)[C@H](CCN)NC1=O)[C@@H](C)O [Compound 120] ({Heptanoyl(6-Me)}-[Dab]T[Dap][Dab][Dab][dF]T[Dab][Dab(CH2SO3H)]T; lactam 4-C)")
0.125
>>> experimental_result("CC[C@H](C)CCCCC(=O)N[C@@H](CCN)C(=O)N[C@H](C(=O)N[C@H](CO)C(=O)N[C@H]1CCNC(=O)[C@H]([C@@H](C)O)NC(=O)[C@H](CCN)NC(=O)[C@H](CN)NC(=O)[C@H]([C@@H](C)O)NC(=O)[C@@H](Cc2ccccc2)NC(=O)[C@H](CCN)NC1=O)[C@@H](C)O [Compound 71] (X1-[Dab]T[dS][Dab][Dab][dF]T[Dap][Dab]T; lactam 4-C)")
0.5
>>> experimental_result("CC(C)CCCCC(=O)N[C@@H](CN)C(=O)N[C@H](C(=O)N[C@H](CCN)C(=O)N[C@H]1CCNC(=O)[C@H]([C@@H](C)O)NC(=O)[C@H](CCN)NC(=O)[C@H](CCN)NC(=O)[C@H](CC(C)C)NC(=O)[C@@H](Cc2ccccc2)NC(=O)[C@H](CCN)NC1=O)[C@@H](C)O [Compound 92] ({Heptanoyl(6-Me)}-[Dap]T[dDab][Dab][Dab][dF]L[Dab][Dab]T; lactam 4-C)")
0.03
>>> experimental_result("CC(C)CCCCC(=O)N[C@@H](CCN)C(=O)N[C@H](C(=O)N[C@H](CO)C(=O)N[C@H]1CCNC(=O)[C@H]([C@@H](C)O)NC(=O)[C@H](CCN)NC(=O)[C@H](CCCN)NC(=O)[C@H]([C@@H](C)O)NC(=O)[C@@H](Cc2ccccc2)NC(=O)[C@H](CCN)NC1=O)[C@@H](C)O [Compound 77] ({Heptanoyl(6-Me)}-[Dab]T[dS][Dab][Dab][dF]T[Orn][Dab]T; lactam 4-C)")
0.5
